- assay system: SOC
- procedure details: NFAT coupled luciferase assay (NFAT-luc) for functional inhibition of SOC
- Format: cell-based
- measurement conditions: Jurkat T cells pretreated 30 minutes, activated by thapsigargin (TG) and PMA; read-out: EC50, NFAT-luc assay dose response

input smiles: COc1cc2c(cc1-c1coc3c4c(ccc3c1=O)OC(C)(C)C=C4)OCO2
EC50: 900 nM
